The reported measurements were obtained from PubChem BioAssay AID2289.

Item-by-item account of Potency
# PROTOCOL_SUMMARY: qHTS Assay for Modulators of miRNAs and/or Inhibitors of miR-21; further: potency means the concentration at half of the fitted maximal effect; nearly all actives have a fitted effect of over 55% in size
# DETAILS: HeLa miR-21-FLuc reporter, luciferase luminescence, 48 h; actives lower the signal
About 3,300 (0.97%) of roughly 340,000 compounds were called active. Not shown: some 9% with an inconclusive outcome. The list shows a part of the results.

[
  {
    "CHEMICAL_STRING": "Cc1ccccc1C(=O)N/N=C/c1ccsc1C",
    "Potency": "2330 nM (active)"
  },
  {
    "CHEMICAL_STRING": "CNc1oc(/C=C/c2cccc(OC)c2)nc1C#N",
    "Potency": "2930 nM (active)"
  },
  {
    "CHEMICAL_STRING": "CCCCNC(=S)Nc1ccc(-c2nc3ccc(C)cc3s2)cc1",
    "Potency": "826 nM (active)"
  },
  {
    "CHEMICAL_STRING": "CNc1oc(/C=C/c2ccccc2)nc1C#N",
    "Potency": "3290 nM (active)"
  },
  {
    "CHEMICAL_STRING": "Cc1ccccc1/C=N/NC(=O)c1sccc1C",
    "Potency": "1470 nM (active)"
  },
  {
    "CHEMICAL_STRING": "CCCSc1nsc(NC(=O)CC)n1",
    "Potency": "521 nM (active)"
  },
  {
    "CHEMICAL_STRING": "CC(C)C(=O)Nc1ccc(C(=O)c2ccccc2)cc1",
    "Potency": "7360 nM (active)"
  },
  {
    "CHEMICAL_STRING": "Cc1ccnc(Nc2nc(-c3ccc(O)c(O)c3)cs2)c1",
    "Potency": "4650 nM (active)"
  },
  {
    "CHEMICAL_STRING": "CC(C)C(=O)Nc1ccc(-c2csc(-c3ccccc3)n2)cc1",
    "Potency": "2330 nM (active)"
  },
  {
    "CHEMICAL_STRING": "Cc1ccc2nc(-c3ccc(NC(=S)NC(=O)C(C)C)cc3)sc2c1",
    "Potency": "927 nM (active)"
  },
  {
    "CHEMICAL_STRING": "CCC(=O)NC(=S)Nc1ccc(-c2nc3ccccc3s2)cc1",
    "Potency": "293 nM (active)"
  },
  {
    "CHEMICAL_STRING": "Cc1cc(C(=O)N(C)C)sc1-c1ccccc1",
    "Potency": "5210 nM (active)"
  },
  {
    "CHEMICAL_STRING": "COc1ccc(-c2nc3c4ccccc4[nH]c(=O)n3n2)cc1",
    "Potency": "3690 nM (active)"
  }
]

###

# PROTOCOL_SUMMARY: qHTS Assay for Modulators of miRNAs and/or Inhibitors of miR-21; further: potency means the concentration at half of the fitted maximal effect; nearly all actives have a fitted effect of over 55% in size
# DETAILS: HeLa miR-21-FLuc reporter, luciferase luminescence, 48 h; actives lower the signal
The whole screen tested about 340,000 compounds, of which about 3,300 (0.97%) were called active. Another 9% or so got no clear call; they are omitted. This is one part of the list.

[
  {
    "MOLECULE": "CN(C(=O)c1ccco1)c1nnc(C23CC4CC(CC(C4)C2)C3)s1",
    "Potency": "8.26 µM (active)"
  },
  {
    "MOLECULE": "Cc1cc(C(=O)CSc2ccc(F)cc2)cc(C)c1O",
    "Potency": "9.27 µM (active)"
  },
  {
    "MOLECULE": "CCOC(=O)C(C)On1c(-c2ccc(Cl)cc2)nc2ccc([N+](=O)[O-])cc21 (stereo not drawn)",
    "Potency": "3.69 µM (active)"
  },
  {
    "MOLECULE": "O=C(NC(=S)Nc1ccc(Cl)cc1)c1ccccc1",
    "Potency": "4.65 µM (active)"
  },
  {
    "MOLECULE": "Cc1ccc(-c2nc(-c3ccncc3)no2)cc1",
    "Potency": "1.47 µM (active)"
  },
  {
    "MOLECULE": "COc1ccc(C(=O)NCCc2c[nH]c3ccccc23)cc1",
    "Potency": "3.29 µM (active)"
  },
  {
    "MOLECULE": "N/C(=N\\OC(=O)/C=C/c1ccccc1Cl)c1ccncc1",
    "Potency": "0.414 µM (active)"
  },
  {
    "MOLECULE": "CC(C)c1ccc(NC(=O)C(c2ccccc2)N2CC(=O)Nc3ccccc32)cc1 (stereo not drawn)",
    "Potency": "13.1 µM (active)"
  },
  {
    "MOLECULE": "O=C(N/N=C1/CC2C=CCC12)c1ccco1 (stereo not drawn)",
    "Potency": "5.21 µM (active)"
  },
  {
    "MOLECULE": "O=C(COC(=O)c1cccs1)c1ccc2c(c1)OCCO2",
    "Potency": "3.69 µM (active)"
  },
  {
    "MOLECULE": "COc1cc(/C=N/OCC(=O)Nc2cc(C)cc(C)c2)ccc1OCc1ccc(Cl)cc1",
    "Potency": "2.93 µM (active)"
  },
  {
    "MOLECULE": "O=C(c1ccccc1)c1c(O)nc(-c2ccccc2)n(-c2ccccc2)c1=O",
    "Potency": "13.1 µM (active)"
  },
  {
    "MOLECULE": "COc1ccc(N(/N=C2\\Sc3ccccc3C2=O)C(C)=O)cc1",
    "Potency": "0.261 µM (active)"
  },
  {
    "MOLECULE": "Fc1ccc(OCc2nnc(-c3ccccc3Br)o2)c(Cl)c1",
    "Potency": "13.1 µM (active)"
  },
  {
    "MOLECULE": "COc1ccc(N=C2C(=Nc3ccc(OC)cc3)N(c3ccccc3)C(=S)N2C(=O)c2ccc(Cl)cc2)cc1",
    "Potency": "5.21 µM (active)"
  },
  {
    "MOLECULE": "COc1ccc(C(=O)N[C@H](C(=O)Nc2nc3c(s2)CCCC3)C(C)C)cc1",
    "Potency": "2.93 µM (active)"
  },
  {
    "MOLECULE": "CCc1ccc2oc(-c3cc(N)cc(C)c3O)nc2c1",
    "Potency": "2.93 µM (active)"
  },
  {
    "MOLECULE": "N/C(=N\\OC(=O)/C=C/c1ccccc1Cl)c1cccnc1",
    "Potency": "2.07 µM (active)"
  },
  {
    "MOLECULE": "Cc1cccc(C(=O)OCC(=O)c2ccc3c(c2)OCO3)c1O",
    "Potency": "1.85 µM (active)"
  },
  {
    "MOLECULE": "Cc1cc(C(=O)N/N=C/c2cccc([N+](=O)[O-])c2)c(C)n1-c1ccccc1",
    "Potency": "6.56 µM (active)"
  },
  {
    "MOLECULE": "O=C(N/N=C1/CC2C=CCC12)c1cccs1 (stereo not drawn)",
    "Potency": "11.7 µM (active)"
  },
  {
    "MOLECULE": "Nc1c(-c2nc(-c3ccccc3Cl)no2)nnn1-c1ccccc1F",
    "Potency": "0.826 µM (active)"
  },
  {
    "MOLECULE": "Clc1cccc(OCc2nnc(-c3ccccc3Br)o2)c1",
    "Potency": "16.5 µM (active)"
  }
]

###

# PROTOCOL_SUMMARY: qHTS Assay for Modulators of miRNAs and/or Inhibitors of miR-21; further: potency means the concentration at half of the fitted maximal effect; nearly all actives have a fitted effect of over 55% in size
# DETAILS: HeLa miR-21-FLuc reporter, luciferase luminescence, 48 h; actives lower the signal
Hit rate of the full screen: of about 340,000 compounds, about 3,300 (0.97%) were called active. Another 9% or so got no clear call; they are omitted. Some of the results follow.
MEASURED_PARAMETER: Potency

[
  {
    "CHEMICAL_STRING": "CC(=O)C(/C=N/c1cc(-c2ccc(C)cc2)nn1-c1ccccc1)=C(\\C)O",
    "MEASURED_PARAMETER": "Potency",
    "MEASUREMENT": "1470 nM (active)"
  },
  {
    "CHEMICAL_STRING": "CC(C)(C)c1ccc(SCCc2cccnc2)cc1",
    "MEASURED_PARAMETER": "Potency",
    "MEASUREMENT": "8260 nM (active)"
  },
  {
    "CHEMICAL_STRING": "O=C(O)c1cc(N/N=C/c2ccc(-c3ccccc3)cc2)ccc1Cl",
    "MEASURED_PARAMETER": "Potency",
    "MEASUREMENT": "233 nM (active)"
  },
  {
    "CHEMICAL_STRING": "CCc1cc(C(=O)NNC(=S)Nc2ccccc2C)cs1",
    "MEASURED_PARAMETER": "Potency",
    "MEASUREMENT": "2070 nM (active)"
  },
  {
    "CHEMICAL_STRING": "Cc1cc(C(=O)NNC(=S)Nc2ccccc2C)cs1",
    "MEASURED_PARAMETER": "Potency",
    "MEASUREMENT": "1650 nM (active)"
  },
  {
    "CHEMICAL_STRING": "CC(C)Oc1cccc(C(=O)NC(=S)Nc2cccnc2)c1",
    "MEASURED_PARAMETER": "Potency",
    "MEASUREMENT": "13100 nM (active)"
  }
]
